Data provenance is patent US4705799A.

- System: Staphylococcus aureus
- EXPERIMENT_DESCRIPTION: In vivo efficacy of compounds administered subcutaneously in mouse intraperitoneal infections
- RECORDED_CONDITIONS: sc, 168 h; mouse i.p. Staphylococcus aureus infection; subcutaneous; dosed at infection and 4 h post-infection; 7 days; read-out: ED50 (50 percent effective dose)
PROPERTY: ED50 (mg/kg)
API: value field is a number in mg/kg; no unit string.

Known ED50 results, listed for orientation:
COMPOUND	TARGET_ENTITY	UNIT	RESULT_NUMBER
CCCCc1ccc(N2CC(CNC(=O)OC)OC2=O)cc1 (stereo not drawn)	Staphylococcus aureus	mg/kg	42.3
CS(=O)(=O)c1ccc(N2CC(CNC(=O)C3CC3)OC2=O)cc1 (stereo not drawn)	Staphylococcus aureus	mg/kg	15.2
CCc1cc(N2CC(CNC(C)=O)OC2=O)ccc1C(C)=O (stereo not drawn)	Staphylococcus aureus	mg/kg	11.9
COC(=O)NCC1CN(c2ccc(S(=O)(=O)N(C)OC)cc2)C(=O)O1 (stereo not drawn)	Staphylococcus aureus	mg/kg	14.9
CC(=O)NCC1CN(c2ccc(C(=O)C(Br)(Br)Br)cc2)C(=O)O1 (stereo not drawn)	Staphylococcus aureus	mg/kg	13.2
CC(=O)c1ccc(N2CC(CNC=O)OC2=O)cc1 (stereo not drawn)	Staphylococcus aureus	mg/kg	4.5

Next, consider the following compound.
In: Return value of ED50 for input CSCC(=O)c1ccc(N2CC(CNC(C)=O)OC2=O)cc1 (single isomer, unassigned) , no commentary.
Out: 5.4
